Reported values of viability at 28.5 h, 10 µM for individual entries
# experiment: in vitro
# experimental_parameters: human, hela cells, % viability
Provide only the numeric value, understood in %.

// known answers, use as guide
-- ask Please report the recorded viability at 28.5 h, 10 µM for COc1ccc(CN2CCCN(C(=O)c3ccc(F)cc3Br)CC2)cc1 [CBK251752] .
-- reply 88.1

-- ask Please report the recorded viability at 28.5 h, 10 µM for NC(=O)COc1ccc(/C=C/c2cc(C(F)(F)F)[nH]c(=O)n2)cc1 [CBK269475] .
-- reply 90.6

-- ask Please report the recorded viability at 28.5 h, 10 µM for O=C(CCNC(Cc1ccccc1)C(=O)O)c1ccccc1 (stereo not drawn) [CBK286655] .
-- reply 83

-- ask Please report the recorded viability at 28.5 h, 10 µM for CC(=O)Nc1ccc(S(=O)(=O)N2CCN(C(=O)COc3ccc(C)cc3)CC2)cc1 [CBK264268] .
-- reply 91

New cases:
-- ask Please report the recorded viability at 28.5 h, 10 µM for Cc1nn(CC(C)C)c(C)c1CCC(=O)NCc1nnc2ccccn12 [CBK305719] .
-- reply 88.1

-- ask Please report the recorded viability at 28.5 h, 10 µM for C=CCNC(=O)N1CCC2(CC1)OCCc1c2n(C)c2ccccc12 [CBK047354] .
-- reply 84.8

-- ask Please report the recorded viability at 28.5 h, 10 µM for Cc1ccc(N(CC(=O)Nc2ccccc2C(N)=O)S(=O)(=O)c2ccccc2)cc1C [CBK265246] .
-- reply 94.4

-- ask Please report the recorded viability at 28.5 h, 10 µM for CCN(CC)C(=O)[C@@H]1CCCN(C2CCN(C(=O)c3c4ccccc4cc4ccccc34)CC2)C1 [CBK066966C] .
-- reply 90.4

-- ask Please report the recorded viability at 28.5 h, 10 µM for COc1ccc(CCNC(=O)NS(=O)(=O)c2ccc(C)cc2)cc1OC [CBK300510] .
-- reply 88

-- ask Please report the recorded viability at 28.5 h, 10 µM for COCC(=O)N[C@H]1CCN2C(=O)c3cc(-c4ccccc4F)ccc3NC(=O)[C@@H]2C1 [CBK289553] .
-- reply 95.6

-- ask Please report the recorded viability at 28.5 h, 10 µM for O=C1/C(=C/c2ccc(OCc3cccc4ccccc34)cc2)SC(=S)N1Cc1cccnc1 [CBK264669] .
-- reply 95.6

-- ask Please report the recorded viability at 28.5 h, 10 µM for Nc1ncnc2c1ncn2[C@@H]1O[C@H](CCl)[C@H](O)C1O (stereo partly drawn) [CBK201252] .
-- reply 98.8

====

# experiment: in vitro
# Parameters: Viability of infected HeLa host cells, resazurin conversion, bulk resorufin fluorescence relative to DMSO
# experimental_parameters: human, hela cells; bulk resorufin, mean of 3
Reported values of viability at 28.5 h, 0.111 µM for individual entries
State the value with its unit after it.

-- ask Please report the recorded viability at 28.5 h, 0.111 µM for Cn1cc(C(c2ccc(OCC(=O)O)cc2)c2cn(C)c3ccccc23)c2ccccc21 [c48e] .
-- reply 89.5%

New cases:
-- ask Please report the recorded viability at 28.5 h, 0.111 µM for O=C1Oc2nc3ccccc3cc2CN1C1CC1 [c1e] .
-- reply 89.2%

-- ask Please report the recorded viability at 28.5 h, 0.111 µM for O=C(CSc1nnc(-c2cccnc2)o1)c1ccccc1 [c35e] .
-- reply 90.5%

-- ask Please report the recorded viability at 28.5 h, 0.111 µM for CCCN(CCC)CCc1cccc2c1CCN2C(=O)c1cc2ccccc2s1 [c15e] .
-- reply 94.8%

-- ask Please report the recorded viability at 28.5 h, 0.111 µM for O=C(CC1SC(Nc2ccc(O)cc2)=NC1=O)c1ccccc1 (stereo not drawn) [c13e] .
-- reply 92%

-- ask Please report the recorded viability at 28.5 h, 0.111 µM for Cc1ccc2[nH]c3c(c2c1)CCOC31CCN(Cc2ccccc2-c2ccccc2)CC1 [c22e] .
-- reply 86.6%

-- ask Please report the recorded viability at 28.5 h, 0.111 µM for FC(F)(F)c1ccc(N2CCNCC2)nc1OCc1ccc2c(c1)OCCO2 [c46e] .
-- reply 93.4%

-- ask Please report the recorded viability at 28.5 h, 0.111 µM for COc1cccc(CNC(C(=O)O)c2ccc3c(c2)OCO3)c1 (stereo not drawn) [c40e] .
-- reply 102%

-- ask Please report the recorded viability at 28.5 h, 0.111 µM for CC(=O)N1CCc2sccc2C1c1ccccc1NCc1ccoc1 (stereo not drawn) [c28e] .
-- reply 89.2%

====

Reported values of viability at 28.5 h, 10 µM for individual entries
# experiment: in vitro
# experimental_parameters: human, hela cells, % viability
Provide only the numeric value, understood in %.

// known answers, use as guide
-- ask Please report the recorded viability at 28.5 h, 10 µM for Cc1ccc(C(=O)N2CC=C(c3c[nH]c4ncccc34)CC2)cn1 [CBK297889] .
-- reply 103

-- ask Please report the recorded viability at 28.5 h, 10 µM for Cc1ccc(S(=O)(=O)NC2c3cccc4cccc(c34)C2Sc2nnc(N)s2)cc1 (centres unmarked) [CBK265835] .
-- reply 107

New cases:
-- ask Please report the recorded viability at 28.5 h, 10 µM for Cc1nc2c(c(=O)[nH]1)CN(CC1CCCCC1)CC2 [CBK283947] .
-- reply 86.7

-- ask Please report the recorded viability at 28.5 h, 10 µM for O=[N+]([O-])c1ccc(Cl)cc1N/N=C1\CN2CCC1CC2 [CBK217272] .
-- reply 108

-- ask Please report the recorded viability at 28.5 h, 10 µM for Fc1cccc(Cl)c1CN1CNC(=S)NC1 [CBK006480] .
-- reply 88.7

====

Reported values of viability at 28.5 h, 10 µM for individual entries
# experiment: in vitro
# experimental_parameters: human, hela cells, % viability
Provide only the numeric value, understood in %.

-- ask Please report the recorded viability at 28.5 h, 10 µM for O=c1c2c(nc(NCCO)n1-c1ccccc1)-c1ccccc1CC21CCCCC1 [CBK262589] .
-- reply 96.4

-- ask Please report the recorded viability at 28.5 h, 10 µM for O=C(CCN1CCOCC1)N/N=C\c1cccs1 [CBK005035] .
-- reply 90.6

-- ask Please report the recorded viability at 28.5 h, 10 µM for CCOC(=O)c1ccc(-c2[nH]cnc2-c2c(C)cc(OC)cc2O)o1 [CBK026647] .
-- reply 113

-- ask Please report the recorded viability at 28.5 h, 10 µM for COc1ccc(S(=O)(=O)NCCCN2CCOCC2)c(Cl)c1Cl [CBK269792] .
-- reply 95.3

New cases:
-- ask Please report the recorded viability at 28.5 h, 10 µM for c1ccc2c(c1)OCC(COc1ccnc(N3CCCN(CC4CCCCC4)CC3)n1)O2 (stereo not drawn) [CBK083982] .
-- reply 115

-- ask Please report the recorded viability at 28.5 h, 10 µM for O=S(=O)(c1ccc(-n2cnc(Cl)c2Cl)cc1)N1CCN(Cc2ccc(O)c(F)c2)CC1 [CBK062803] .
-- reply 95.8

-- ask Please report the recorded viability at 28.5 h, 10 µM for COc1cc(CNCc2cccnc2)cc(Cl)c1OCc1cccs1 [CBK270026C] .
-- reply 96.2

-- ask Please report the recorded viability at 28.5 h, 10 µM for CCCC(=O)Nc1nc(-c2ccc(C)cc2)c(C)s1 [CBK287763] .
-- reply 110

-- ask Please report the recorded viability at 28.5 h, 10 µM for Cc1c(CN(C)CC(=O)Nc2cccc(C(F)(F)F)c2)cnn1C [CBK304341] .
-- reply 85

-- ask Please report the recorded viability at 28.5 h, 10 µM for Cc1ccc(S(=O)(=O)N(CC(=O)Nc2ccccc2C(=O)O)c2ccccc2)cc1 [CBK264034] .
-- reply 94.6

-- ask Please report the recorded viability at 28.5 h, 10 µM for COc1ccc(/C=C/C2=CCN(C)CC2)cc1Cn1cccn1 [CBK283859] .
-- reply 90.8

-- ask Please report the recorded viability at 28.5 h, 10 µM for Cc1cc(S(=O)(=O)NCCC#N)c(C)cc1Cl [CBK043680] .
-- reply 113

-- ask Please report the recorded viability at 28.5 h, 10 µM for CC1CCN(c2ccc(C(C)NC(=O)Cn3cccn3)cc2)CC1 (stereo not drawn) [CBK281725] .
-- reply 86.1

-- ask Please report the recorded viability at 28.5 h, 10 µM for COc1nccnc1NS(=O)(=O)c1ccc(Nc2c([N+](=O)[O-])cc([N+](=O)[O-])c3nonc23)cc1 [CBK261441] .
-- reply 87.5

-- ask Please report the recorded viability at 28.5 h, 10 µM for O=C(Cn1cc(-c2ccc(CN3CCCCC3)cc2)nn1)NCc1ccc(OC(F)F)cc1 [CBK167514] .
-- reply 96

-- ask Please report the recorded viability at 28.5 h, 10 µM for O=C(Nc1ccccc1)OCC(CN1CCCCC1)OC(=O)Nc1ccccc1 (stereo not drawn) [CBK023067C] .
-- reply 103

-- ask Please report the recorded viability at 28.5 h, 10 µM for COc1cc(/C=C/C(=O)O)ccc1OCC(=O)Nc1ccccc1 [CBK265695] .
-- reply 101

-- ask Please report the recorded viability at 28.5 h, 10 µM for OCCNc1nc(-c2cccnc2)nc2ccccc12 [CBK262314] .
-- reply 105

-- ask Please report the recorded viability at 28.5 h, 10 µM for CCc1nnc(NS(=O)(=O)c2ccc(NC(=O)c3ccccc3[N+](=O)[O-])cc2)s1 [CBK045494] .
-- reply 94.2

-- ask Please report the recorded viability at 28.5 h, 10 µM for Fc1ccc(N(CCCN2CCN(c3ncccn3)CC2)c2ccc(F)cc2)cc1 [CBK025127C] .
-- reply 98.8
